- tested_on: T1, CD27 expressed on the cell surface (HT1080_CD27 cells) (human, UniProt P26842 20-260)
- T1 construct: whole, on cells; also called K562_CD27
- T1 sequence (looked up): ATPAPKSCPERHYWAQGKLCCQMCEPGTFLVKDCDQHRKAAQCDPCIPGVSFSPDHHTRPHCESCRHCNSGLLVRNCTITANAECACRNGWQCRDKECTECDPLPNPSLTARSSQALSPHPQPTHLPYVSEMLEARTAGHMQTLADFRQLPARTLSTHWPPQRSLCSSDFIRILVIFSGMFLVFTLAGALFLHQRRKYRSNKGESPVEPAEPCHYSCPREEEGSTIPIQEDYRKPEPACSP
- experimental_protocol: cellular binding assay, HT1080_CD27 cells; note: test concentration or dose not given here
measure_name: Cellular binding assay [RFU] (RFU)
Unit RFU implied. Number only.

// known answers, use as guide
[[record]]
binder = "P018.S.04.A.D04 (antibody, V domains shown, V regions on human Ig constant parts; also called AB27_72) VH: QSVEESGGRLVTPGTPLTLTCTVSGIDLSSYSMTWVRQAPGKGLEWIGFINTGGRGYYASWAKGRFTISKTSTTVDLKITSPTTEDTATYFCARDAGSSRGYYRDLWGQGTLVTVSS VL: AYDMTQTPASVSAAVGGTVTIKCQASEDIYSLLAWYQQKPGQPPKLLIYDASDLASGVPSRFSGSGSGTDYTLTISGVESADAATYYCQQGYTTSTTVDNIFGGGTEVVVK"
measure_name = "Cellular binding assay [RFU]"
measured = 365

[[record]]
binder = "P018.S.05.A.B02 (antibody, V domains shown, V regions on human Ig constant parts; also called AB27_83) VH: QSLEESGGRLVTPGTPLTLTCKVSGFSLSSYDMIWVRQAPGKGLEWIGIVSTGGSAGYASWAKGRFTITKTSTTVDLKITSPTTEDTATYFCARIISGGRDLWGPGTLVTVSS VL: DIVMTQTPASVEAAVGGTVTIKCQASESISSRLAWYQQKPGQPPKLLIYSASTLAFGVSSRFKGSGSGTQFTLTISDLESADAATYYCQSYYYSSTASYASNNAFGGGTEVVVK"
measure_name = "Cellular binding assay [RFU]"
measured = 259

[[record]]
binder = "P018.S.05.A.E04 (antibody, V domains shown, V regions on human Ig constant parts; also called AB27_90) VH: QEQLEESGGDLVKPEGSLTLTCTASGFSFSSYWICWVRQAPGKGLEWIACIATHSGTDFYASWAKGRFTISKTSSTTVTLQMTSLTAADTATYFCARDPYGFNGDYFSLWGPGTLVTVSS VL: ALVMTQTPASVSAAVGGTVTINCQASQSVYNSNYLSWYQQKPGQPPKLLIYKASTLASGVPSRFKGSGSGTQFTLTISGVESDDAATYYCAGYKSYTNDDNGFGGGTEVVVK"
measure_name = "Cellular binding assay [RFU]"
measured = 332


Cellular binding assay [RFU] lookup needed for P018.S.03.A.H05 (antibody, V domains shown, V regions on human Ig constant parts; also called AB27_63) VH: QSLEESGGDLVKPGASLTLTCTASGFSFSDRHYMCWVRQAPGKGLEWIGSIYTGKDSIDYASWAKGRFTISKTSSTTVTLQMTSLTAADTATYFCARDLLYGSSSGYLHTWGPGTLVTVSS VL: DIVMTQTPSSVSEPVGGTVTIKCQASHNIYSNLAWYQQKLGQPPKLLIYYASTLASGVPSRFKGSGSGTEYTLTISDLESDDAATYYCQSAYYGSIDITFGGGTEVVAQ , thanks.
294

Lookup P018.S.07.A.C06 (antibody, V domains shown, V regions on human Ig constant parts; also called AB27_121) VH: QSVEESGGRLVTPGTPLTLTCTVSGFSLNHYHMCWVRQAPGKGLEYIGRIDNSGYIVYASWAKGRFTISKTSTTVDLKITSPTTADTATYFCGKYYSGGSYDLWGQGTLVTVSS VL: AQVLTQTASSVSAAVGGTVTISCQSSQSVWNNNWLAWYQQKPGQPPKLLIYETSKLASGVPSRFKGSGSGTQFTLTISGVQSDDAATYYCQGEFSCSSDDCNAFGGGTEVVVK
336
